Reference source for all entries: patent US11357779B2

method_description: Plasma concentration versus time of Compound I and metabolite Compound III in patients dosed QD or BID with Form B of Compound II plus fulvestrant
Assay type: in vivo, human
assay_context: human, plasma, oral, 650 mg, 650 mg QD of Form B, Day 1, 0.0 h, Median; read-out: Compound III Concentration
Description: Patients were enrolled into 1 of 2 parallel, independently operating, dose-escalation dosing cohorts with Form B of Compound II administered continuously either once daily (QD) or twice daily (BID) with food with fixed-dose fulvestrant (intramuscularly every 14 days for the first three injections and then every 28 days). Pre- or perimenopausal patients also received goserelin for the duration of study treatment. […]
endpoint_label: concentration at 0 h (ng/mL)
Field format: number, assumed ng/mL, no unit text.

Recorded concentration at 0 h of O=C1NCC2(CCCCC2)n2c1cc1cnc(Nc3ccc(N4CCNCC4)cn3)nc12 [Compound III] , please.
0
